Hey, just so you know, these numbers are from the supplement of paper PMC11208160.

- ASSAY_NOTES: recombinant barcode read abundance after kanamycin selection (control-corrected) (log10(CPM+1)); higher = more efficient recombination; sequences stand for … in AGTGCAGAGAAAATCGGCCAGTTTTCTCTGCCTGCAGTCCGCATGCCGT…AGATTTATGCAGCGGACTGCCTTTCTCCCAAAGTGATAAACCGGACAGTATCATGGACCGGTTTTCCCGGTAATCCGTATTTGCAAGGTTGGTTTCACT; site = the 11-nt target;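 also: IS621 recombinase and bridge RNA in Escherichia coli cells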
Decide by recombinant barcode read abundance (log10): equal to or exceeding 0.07 means satisfied, less means not satisfied.

ACCTTAACTTGGGTTCTAACCTGTTGCCT (site ATCTCAACTAG)    not satisfied
TACGCCTCTTGGGTTCTAACCTGTTGCCT (site TACGCCTCTAG)    satisfied
GAGCGTCCTTGGGTTCTAACCTGTTGCCG (site GAGCGTCCTCG)    satisfied
CATCGGACTTGGGTTCTAACCTGTTGCAA (site CATCGGACTTT)    satisfied
GTACGTACTTGGGTTCTAACCTGTTGCCT (site TTACGTACTAG)    satisfied
TGAGCGGCTTGGGTTCTAACCTGTTGCCT (site TGAGGGGCTAG)    not satisfied
CGTAATGCTTGGGTTCTAACCTGTTGCCT (site CGCAATGCTAG)    satisfied
AGTCATACTTGGGTTCTAACCTGTTGCCA (site AGTCATACTTG)    satisfied
GTACGTCCTTGGGTTCTAACCTGTTGCGT (site GTACGTCCTAC)    satisfied
CAGAGCACTTGGGTTCTAACCTGTTGCCT (site AAGAGCACTAG)    satisfied
CCTTCCTCTTGGGTTCTAACCTGTTGCCT (site CATTCCTCTAG)    not satisfied
GACGTACCTTGGGTTCTAACCTGTTGCCT (site GACTTACCTAG)    not satisfied
TTAGTGCCTTGGGTTCTAACCTGTTGCCT (site TTAGTCCCTAG)    not satisfied
GCTAGTTCTTGGGTTCTAACCTGTTGCTT (site GCTAGTTCTAA)    satisfied
AGCATTGCTTGGGTTCTAACCTGTTGCCT (site AGCTTTGCTAG)    satisfied
CAAAGTCCTTGGGTTCTAACCTGTTGCCT (site CAAAGTCCTAT)    satisfied
TCACGTCCTTGGGTTCTAACCTGTTGCCT (site TCACGTCCTAT)    satisfied
TAGTCTTCTTGGGTTCTAACCTGTTGCGT (site TAGTCTTCTAC)    satisfied
GGTCTAACTTGGGTTCTAACCTGTTGCCT (site GGTCGAACTAG)    satisfied
AGTTGTCCTTGGGTTCTAACCTGTTGCCT (site AGTTGTCCTAC)    not satisfied
CAAAGTCCTTGGGTTCTAACCTGTTGCCT (site CAAAGTCCTAA)    not satisfied

---

- ASSAY_NOTES: recombinant barcode read abundance after kanamycin selection (control-corrected) (log10(CPM+1)); higher = more efficient recombination; sequences stand for … in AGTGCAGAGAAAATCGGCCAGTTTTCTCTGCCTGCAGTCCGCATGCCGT…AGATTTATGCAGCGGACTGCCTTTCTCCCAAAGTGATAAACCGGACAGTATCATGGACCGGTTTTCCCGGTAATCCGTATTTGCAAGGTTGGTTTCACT; site = the 11-nt target
PROPERTY_MEASURED: recombinant barcode read abundance (log10)

AGTTAGCCTTGGGTTCTAACCTGTTGCCT (site AGTTAGCCTAG)    0.361
AAGATCACTTGGGTTCTAACCTGTTGCGG (site AAGATCACTCC)    2.36
TAGGCTCCTTGGGTTCTAACCTGTTGCAT (site TAGGCTCCTGT)    0.0892
ACGGCGCCTTGGGTTCTAACCTGTTGCCT (site ATGGCGCCTAG)    0.182
TCGCGTCCTTGGGTTCTAACCTGTTGCAA (site TAGCGTCCTGT)    0.119
AGTCAGACTTGGGTTCTAACCTGTTGCAC (site AGTCAGACTGT)    1.19
CGAAGCTCTTGGGTTCTAACCTGTTGCCT (site CGCAGCTCTAG)    0.211
GTATGCTCTTGGGTTCTAACCTGTTGCGT (site GTATGCTCTAC)    1.17
GAGGGTCCTTGGGTTCTAACCTGTTGCAT (site GAGGGTCCTAC)    0.542
TTAGTGCCTTGGGTTCTAACCTGTTGCCT (site TTAGTTCCTAG)    0.0759

---

- ASSAY_NOTES: recombinant barcode read abundance after kanamycin selection (control-corrected) (log10(CPM+1)); higher = more efficient recombination; sequences stand for … in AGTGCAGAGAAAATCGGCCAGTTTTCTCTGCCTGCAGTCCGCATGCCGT…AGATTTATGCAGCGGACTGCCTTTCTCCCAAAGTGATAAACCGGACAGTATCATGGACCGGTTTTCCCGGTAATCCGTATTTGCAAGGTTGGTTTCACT; site = the 11-nt target
PROPERTY_MEASURED: recombinant barcode read abundance (log10)

GTGTCATCTTGGGTTCTAACCTGTTGCCT (site GTGTCAGCTAG)    0.0185
TCGCAGACTTGGGTTCTAACCTGTTGCCT (site TCGCAGACTAG)    0.286
TAGCACACTTGGGTTCTAACCTGTTGCCG (site TAGCACACTCG)    1.51
CCAAAGACTTGGGTTCTAACCTGTTGCAT (site CTAAAGACTGT)    0.334
TTCACGTCTTGGGTTCTAACCTGTTGCCT (site TTCACGTCTAG)    0.202
TAGTGTGCTTGGGTTCTAACCTGTTGCGT (site TAGTGTGCTAC)    1.66
GGCGGCTCTTGGGTTCTAACCTGTTGCCT (site ACATAAGCTTA)    0.103
ACAGGCGCTTGGGTTCTAACCTGTTGCCT (site ACAGACGCTAG)    0.858
AGTAATTCTTGGGTTCTAACCTGTTGCCT (site AGAAATTCTAG)    0.0418
TATGGGTCTTGGGTTCTAACCTGTTGCCT (site TATGGGTCTAG)    1.04

---

- ASSAY_NOTES: recombinant barcode read abundance after kanamycin selection (control-corrected) (log10(CPM+1)); higher = more efficient recombination; sequences stand for … in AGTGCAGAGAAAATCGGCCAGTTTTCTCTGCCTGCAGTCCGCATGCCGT…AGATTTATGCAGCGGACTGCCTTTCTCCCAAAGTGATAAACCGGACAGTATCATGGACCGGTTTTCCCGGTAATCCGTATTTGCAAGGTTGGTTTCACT; site = the 11-nt target
// map recombinant barcode read abundance (log10) onto a label; ranges range A: < 0.09; range B: ≥ 0.09 and < 0.3; range C: ≥ 0.3

TCTGCGACTTGGGTTCTAACCTGTTGCCT (site TCAGCGACTAG)    range A
AACTTCCCTTGGGTTCTAACCTGTTGCCT (site AACTTCTCTAG)    range A
GACCGTCCTTGGGTTCTAACCTGTTGCGT (site GACCGTCCTAT)    range C
GACGCCTCTTGGGTTCTAACCTGTTGCCT (site AACGCCTCTAG)    range B
GCGTCGGCTTGGGTTCTAACCTGTTGCCT (site GCCTCGGCTAG)    range B
GAGGCTCCTTGGGTTCTAACCTGTTGCCC (site GAGGCTCCTTG)    range B
TCGCGAACTTGGGTTCTAACCTGTTGCCT (site TCGGGAACTAG)    range A
TCACTAGCTTGGGTTCTAACCTGTTGCCT (site TCACTAGCTAG)    range A
CTGTAGGCTTGGGTTCTAACCTGTTGCTA (site CTGTAGCCTCA)    range B
CGATTATCTTGGGTTCTAACCTGTTGCCT (site CGATTATCTAG)    range A
CACTTGACTTGGGTTCTAACCTGTTGCCT (site CACTTGGCTAG)    range B
ACTAGGACTTGGGTTCTAACCTGTTGCGT (site ACTAGGACTAC)    range C
GCTGGGTCTTGGGTTCTAACCTGTTGCTT (site GCGGGGTCTAA)    range A
GGCTGTTCTTGGGTTCTAACCTGTTGCCT (site GGCTGTTCTAG)    range C
AGCGCTCCTTGGGTTCTAACCTGTTGCGT (site AGCGCTCCTAC)    range C
CATTGTACTTGGGTTCTAACCTGTTGCTA (site CATTGTACTTA)    range C
TATTCTCCTTGGGTTCTAACCTGTTGCAT (site TATTCTCCTAC)    range B
TTACGGGCTTGGGTTCTAACCTGTTGCGG (site TTACGAGCTCC)    range C
AGACAGACTTGGGTTCTAACCTGTTGCGT (site AGACAGACTAC)    range C
ACTGGGCCTTGGGTTCTAACCTGTTGCGA (site ACTCGGCCTTC)    range B
ATTAACCCTTGGGTTCTAACCTGTTGCCT (site AGTAACCCTAG)    range A
